# System: HCMV AD169-Bac-Luc2 US2-US6 clone #26 virus
# test.protocol: HCMV AD169-Bac Luciferase Assay (Example B)
# Assay type: cell-based, Human Cytomegalovirus
# applied.conditions: Human betaherpesvirus 5, AD169, MRC5, 72 h, read-out: EC50 Example B
Mark criterion met only when EC50 stays strictly below 200 nM. Values equal to the cut-off are criterion not met.

compound	assigned.class
O=C(Nc1ccc(-c2cccc(-c3cccc(Cl)c3)n2)cc1)c1cocn1	criterion not met

Problem: Report whether reported EC50 is lower than 200 nM (strictly) for O=C(Nc1ccc(-c2nnc(Nc3ccccc3)[nH]2)cc1)c1cscn1
Solution: criterion met

Problem: Here is the next compound: O=C(Nc1ccc(-c2ncc(-c3cccc(Cl)c3)[nH]2)cc1)c1cscn1
Solution: criterion met

Problem: And Cn1c(-c2ccc(NC(=O)c3cscn3)cc2)cnc1-c1cccc(C(F)(F)F)c1 ?
Solution: criterion not met

Problem: Another compound to check: CC(O)(c1cccc(C(F)(F)F)c1)c1nc(-c2ccc(NC(=O)c3cscn3)cn2)cn1CCCOCc1ccccc1 (stereo not shown)
Solution: criterion not met

Problem: Then what about the compound O=C(Nc1ccc(-c2ncc(-c3cccc(C(F)(F)F)c3)[nH]2)cc1)c1csnn1 ?
Solution: criterion met

Problem: Now consider CC(O)(c1cccc(C(F)(F)F)c1)c1nc(-n2ccc(NC(=O)c3cscn3)cc2=O)c[nH]1 (stereo not shown) .
Solution: criterion met

Problem: Repeat with CC(c1cccc(Cl)c1)c1ncc(-c2ccc(NC(=O)c3cscn3)cc2)[nH]1 (stereo not shown)
Solution: criterion met

Problem: Another compound to check: C#CCn1cc(-c2ccc(NC(=O)c3cscn3)cc2)nc1-c1cccc(C(F)(F)F)c1
Solution: criterion met

Problem: And NC(=O)CCn1nc(-c2cccc(Cl)c2)nc1-c1ccc(NC(=O)c2cscn2)cc1 ?
Solution: criterion met

Problem: Input O=C(Nc1ccc(-c2cnc(NC(=O)C3(c4cccc(Cl)c4)CCC3)[nH]2)cc1)c1cscn1
Solution: criterion met

Problem: Similarly, O=C(Nc1ccc(-c2ncc(-c3cccc(Cl)c3)[nH]2)cn1)c1cscn1 ?
Solution: criterion not met

The measurements presented in this section are drawn from patent US9284310B2.
